Values were extracted from ChEMBL document CHEMBL1201862.

# Test system: HOP-62
# assayNotes: NCI tumour cell line growth inhibition, 48 h
The source made the active and inactive calls. No stated cut-off is given here; in the data, active = GI50 up to about 1.1 µM and inactive = higher.
A correct response names exactly one class from Yes (active), No (inactive)

Entry Oc1c2cccc1Cc1cccc3c1OCCOCCOCCOCCOc1c(cccc1Cc1cccc(c1O)C3)C2 : call = ?
No

###

# System: HOP-18
# assayNotes: NCI tumour cell line growth inhibition, 48 h
Active and inactive are the calls of the source. Rule as the data show it: active = GI50 up to about 1.1 µM and inactive = higher.
A correct response names exactly one class from active, inactive

Here's what some known entries look like.
CN1C(c2ccccc2)CS(=O)(=O)CS1(=O)=O (configuration not stated)
inactive
NS(=O)(=O)c1cc2c(cc1Cl)NC(C(=O)c1cc(=O)c3ccc(O)cc3o1)=NS2(=O)=O
inactive
CCCCC(C)C(OC(=O)CC(CC(=O)O)C(=O)O)C(CC(C)CC(O)CCCCC(O)CC(O)C(C)N)OC(=O)CC(CC(=O)O)C(=O)O (configuration not stated)
inactive
COc1cc2[nH]c3c(c2cc1OC)CCN[C@@]31CC[C@@]2(CC3c4c(cc(OC)c(O)c42)CCN3C)C[C@@H]1OC (some centres not stated)
inactive
[O-][Cl+3]([O-])([O-])[O-].c1ccc(-c2csc3c4ccccc4c4ccccc4[n+]23)cc1
inactive

Entry CCN(CC)CCCNc1nccc2c(C)c3c(cc12)c1cnccc1n3C : call = ?
active

Entry O=C1CNC(=O)c2[nH]cnc2N1 : call = ?
inactive

Entry COC(=O)C(Cc1nc2ccc(Cl)cc2nc1O)C(=O)C(=O)Nc1cc(C)ccc1C (configuration not stated) : call = ?
inactive

Entry COc1ccc(C2S/C(=C\c3cc(OC)c(OC)c(OC)c3)C(=O)N2NC(=O)Cc2ccccc2)cc1 (configuration not stated) : call = ?
inactive

Entry COc1ccc(/C=N/n2c(C)nc3c(sc(=S)n3-c3ccccc3)c2=O)cc1 : call = ?
inactive

Entry CN(C)c1ccc(/C=C2\C[N+](C)(C)C/C(=C\c3ccc(N(C)C)cc3)C2=O)cc1 : call = ?
inactive

###

Hi there, I'd appreciate the recorded GI50 for every entry that follows.
# Test system: SK-MEL-2
# assayNotes: NCI tumour cell line growth inhibition, 48 h
Active and inactive are the calls of the source. No stated cut-off is given here; in the data, active = GI50 up to about 1.1 µM and inactive = higher.

# map each compound to its GI50
1. COc1cc([C@@H]2c3cc4c(cc3[C@@H](Nc3ccc(Cl)cc3C(=O)c3ccccc3)[C@H]3COC(=O)[C@H]23)OCO4)cc(OC)c1OC
2. COc1ccc(C(=O)/C=C/c2ccc(OCCCCCCCCCCOc3ccc(/C=C/C(=O)c4ccc(OC)c(OC)c4)cc3)cc2)c(OC)c1
3. Cc1ccc(/C(C#N)=C/c2cccc([N+](=O)[O-])c2)cc1

2.34 µM (inactive)
> 100 µM (inactive)
51.9 µM (inactive)

###

Hi there, I'd appreciate the recorded GI50 for every entry that follows.
# Test system: SNB-19
# assayNotes: NCI tumour cell line growth inhibition, 48 h
The source made the active and inactive calls. No stated cut-off is given here; in the data, active = GI50 up to about 1.1 µM and inactive = higher.

Consider the following illustrative entries.
Cc1cccc2c(O)cc(=O)oc12
> 100 µM (inactive)
CS(=O)(=O)OCCN1CCN(C(=O)c2cccc3c(Nc4ccc(S(=O)(=O)N=C(N)N)cc4)c4ccccc4nc23)CC1
> 100 µM (inactive)
CC1CC[C@@H](C(C)C)[C@H](Oc2nnc(C3OC(CO)C(O)C3O)o2)C1 (stereo partly specified)
> 100 µM (inactive)
OC(c1ccccn1)C1CNc2ccccc21 (stereo unspecified)
> 100 µM (inactive)
COC1(OC)C2(Cl)CCC1(Cl)C(OC(C)=O)C2 (stereo unspecified)
> 100 µM (inactive)

# map each compound to its GI50
1. COC(=O)c1c(OC)cc2cc3c(c(O)c2c1C)C(=O)C1(O)C(=O)C=C(OC)C(OC(=O)CC(C)N)=C1C3=O (stereo unspecified)
2. CC(CCC(=O)O)(c1ccc(O)cc1)c1ccc(O)cc1

1. 6.41 µM (inactive)
2. > 100 µM (inactive)

# map each compound to its GI50
1. CC(=O)/C(=C(/Br)I)c1ccccc1
2. COC(=O)C(CC(C)=O)CS(=O)(=O)CC(=O)C(=O)Nc1cccc([N+](=O)[O-])c1 (stereo unspecified)
3. CCOC(=O)c1cc2c(cn1)[nH]c1cccc(N)c12
4. COC(=O)c1sc2ncc3c(c2c1N)CCCCCC3

1: 17.3 µM (inactive); 2: > 100 µM (inactive); 3: > 100 µM (inactive); 4: > 100 µM (inactive)

###

Hi there, I'd appreciate the recorded GI50 for every entry that follows.
# Test system: U-251
# assayNotes: NCI tumour cell line growth inhibition, 48 h
The source made the active and inactive calls. Cut-off read from the data, not from the text of the source: active = GI50 up to about 1.1 µM and inactive = higher.

Consider the following illustrative entries.
CC(C)(C)c1ccc(OC(=O)Nc2ccc(O)c(C(=O)O)c2)cc1
> 100 µM (inactive)
COC(=O)c1ccc(CCc2cc(O)ccc2O)cc1
7.46 µM (inactive)
O=[N+]([O-])c1ccc(-n2nc3ccc4c(no[n+]4[O-])c3n2)cc1
> 100 µM (inactive)

# map each molecule to its GI50
1. CCN(CC)CCNC(=O)c1cc2cc(NC(=O)c3cc4cc([N+](=O)[O-])ccc4[nH]3)ccc2[nH]1
2. O=c1oc2ccccc2cc1-c1csc(Nc2cc(Cl)cc(Cl)c2)n1
3. CN(/N=C/c1ccc(C(=O)O)cc1)C1=NCCCCN1
4. FC(F)(F)c1ccc2nc(Nc3ccc(Cl)c(Cl)c3)c(-c3ccccc3)nc2c1
5. COc1cc(C2C(=O)C(Cl)N2Nc2nc(C)cc(O)n2)cc(OC)c1OC (stereo not given)

1.84 µM (inactive)
2.39 µM (inactive)
> 100 µM (inactive)
7.16 µM (inactive)
13.3 µM (inactive)

# map each molecule to its GI50
1. Cc1c(C(=O)NCCO)[n+]([O-])c2cc(Cl)ccc2[n+]1[O-]
2. CCOC(=O)c1nc2ccccc2nc1Nc1ccc(OC)cc1

1. > 100 µM (inactive)
2. 35.1 µM (inactive)

###

Hi there, I'd appreciate the recorded GI50 for every entry that follows.
# Test system: A498
# assayNotes: NCI tumour cell line growth inhibition, 48 h
Active and inactive are the calls of the source. No stated cut-off is given here; in the data, active = GI50 up to about 1.1 µM and inactive = higher.

COC1OC(C)C(OC(=O)C(C)(C)C)C(C)(O)C1O (stereo unspecified)
> 100 µM (inactive)

# map each compound to its GI50
1. O=c1ncccn1[C@@H]1O[C@H](CO)[C@H](O)C1O (stereo partly specified)
2. C=C(CCC(C(=O)O)C1CCC2(C)C3=C(CCC12C)C1(C)CCC(O)C(C)(C)C1CC3)C(C)C (stereo unspecified)
3. O=C(O)C12C=CC(C1)c1ccccc12 (stereo unspecified)
4. O=C(CC1(O)C(=O)Nc2c(Cl)ccc(Cl)c21)c1ccc2ccccc2c1 (stereo unspecified)
5. C#CC(C)(C)OC(=O)C(=[N+]=[N-])C(C)=O
6. Cc1ccc(S(=O)(=O)N/N=C(\c2nc3ccc([N+](=O)[O-])cc3[nH]c2=O)C(O)c2ccc([N+](=O)[O-])cc2)cc1 (stereo unspecified)
7. C=CCN(N=O)C(=O)NCCCC(NC(C)=O)C(=O)NCc1ccccc1 (stereo unspecified)
8. Nc1n[nH]c(N)n1

["> 100 µM (inactive)", "29.9 µM (inactive)", "> 100 µM (inactive)", "16.3 µM (inactive)", "> 10 µM (inactive)", "> 100 µM (inactive)", "> 100 µM (inactive)", "5470 µM (inactive)"]

# map each compound to its GI50
1. COc1cc(C=O)cc(/C=N/N=C/c2ccccc2O)c1O
2. CCOC(=O)c1nc2ccccc2nc1Nc1ccc(OC)cc1
3. CC(Oc1cc2oc(=O)cc(-c3ccccc3)c2cc1Cl)C(=O)O (stereo unspecified)
4. COC(=O)C1CC2C=CC1N(C(=O)OCc1ccccc1)C2 (stereo unspecified)
5. CCCCc1ccc(Nc2nc(Cl)c3c(ncn3COCCOC(C)=O)n2)cc1
6. Nc1c(-c2ccc(-c3c(N)[n+]([O-])c4ccccc4[n+]3[O-])cc2)[n+]([O-])c2ccccc2[n+]1[O-]

1. > 100 µM (inactive)
2. 18.6 µM (inactive)
3. > 100 µM (inactive)
4. > 100 µM (inactive)
5. 20.5 µM (inactive)
6. 18.3 µM (inactive)

# map each compound to its GI50
1. CCOC(=O)CCC(NC(=O)c1ccc(CNc2nc3cc(N)cc(N)c3nc2-c2ccccc2)cc1)C(=O)OCC (stereo unspecified)
2. CN(C)c1ccc(/C=C2\C[N+](C)(C)C/C(=C\c3ccc(N(C)C)cc3)C2=O)cc1
3. Cc1ccc(C2SCC(=O)N2NC(=O)c2ccncc2)s1 (stereo unspecified)
4. C=C(C)[C@@]1(O)CCCC[C@@H]1CC(Sc1ccccc1)Sc1ccccc1
5. Oc1c2cccc1Cc1cccc3c1OCCOCCOCCOCCOc1c(cccc1Cc1cccc(c1O)C3)C2

> 100 µM (inactive)
> 100 µM (inactive)
> 100 µM (inactive)
29.9 µM (inactive)
> 100 µM (inactive)

Test item COc1ccc(/C=C/C(=O)c2c(-c3ccccc3)nn(C)c(=O)c2N2CC2C)cc1 (stereo unspecified) ; A498; reported GI50 was 23.9 µM (inactive)
